B1: GMCL1 (parent)
chain: RPDTGDDAAGHGFCYCAGSHKRKR

variants of: B1; experiment: protein stability index of a GFP-peptide fusion (GPS, HEK-293T) (PSI 1-6); higher = more stable; settings: c terminus: a fixed tail appended;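 further: lentivirally expressed fusions sorted by FACS into six bins by GFP to DsRed ratio, PSI derived from sequencing read proportions per bin multiplied by bin number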
The following variants are shown together with reported protein stability index values.
Lab note: jot down the number only; don't add units.

Study these solved cases before continuing.
• RPDTGDDAAGNGFCYCAGSHKRKR [H11N] = 2.32
• RPDTGLDAAGHGFCYCAGSHKRKR [D6L] = 3.13
• RPDTGDDAAGHGFCYCAGSHKRKW [R24W] = 2.87
• RPPTGDDAAGHGFCYCAGSHKRKR [D3P] = 3.64
• RPDTGDDAAGAGFCYCAGSHKRKR [H11A] = 3.64

Incoming: Quick one: protein stability index of LPDTGDDAAGHGFCYCAGSHKRKR [R1L] ?
Outgoing: 3.2

Incoming: Same thing, different variant: DPDTGDDAAGHGFCYCAGSHKRKR [R1D]
Outgoing: 2.92

Incoming: Same thing, different variant: RPDTGDDAAGHYFCYCAGSHKRKR [G12Y]
Outgoing: 2.71

Incoming: Same thing, different variant: RPDTGDDAAGRGFCYCAGSHKRKR [H11R]
Outgoing: 3.43
